Overview of reported GI50 across a group of molecules:
- System: 786-0
- procedure-summary: NCI tumour cell line growth inhibition, 48 h
Active and inactive are the calls of the source. Cut-off read from the data, not from the text of the source: active = GI50 up to about 1.1 µM and inactive = higher.
measurement-name: GI50

| molecule | measurement-name | readout-value |
| --- | --- | --- |
| CN(N)c1nc(N)c(C#N)c(C#N)c1C#N | GI50 | > 10 µM (inactive) |
| O=c1oc2ccc3ccccc3c2cc1-c1nc2ccccc2o1 | GI50 | 18.6 µM (inactive) |
| COc1cc2nc(-c3ccccc3)cc(O)c2c(OC)c1OC | GI50 | > 100 µM (inactive) |
| S=c1[nH]c2ccc(Br)cc2c(=S)n1-c1ccccc1 | GI50 | 24.5 µM (inactive) |
| CC1=NN(C(=O)c2ccc(Cl)cc2)C(=O)/C1=C/c1ccc(Cl)cc1 | GI50 | > 100 µM (inactive) |
| COCC12CC(CC1=O)C1C2ON2c3ccccc3C(=O)C12c1ccccc1 (centres undefined) | GI50 | > 100 µM (inactive) |
| O=C(CCc1n[nH]c(=S)o1)Nc1ccccc1C(F)(F)F | GI50 | > 100 µM (inactive) |
| Clc1ccc(C(Cc2cccc(Cl)c2)c2c(Cl)nc(N3CCNCC3)nc2Cl)cc1 (centres undefined) | GI50 | 14.4 µM (inactive) |
| CC(C)C1(C)N=C(C(F)(F)F)c2cc(C(=O)C(F)(F)F)c3ccccc3c2N1 (centres undefined) | GI50 | 3.7 µM (inactive) |
| NC(Cc1ccc(S(=O)(=O)O)cc1)C(=O)NC(CCCCNC(=O)NCCCCC(NC(=O)C(N)Cc1ccc(S(=O)(=O)O)cc1)C(=O)NC(Cc1ccc(S(=O)(=O)O)cc1)C(=O)O)C(=O)NC(Cc1ccc(S(=O)(=O)O)cc1)C(=O)O (centres undefined) | GI50 | > 100 µM (inactive) |
| OCCCCn1cnc2c(O)ncnc21 | GI50 | > 100 µM (inactive) |
| N#Cc1cccc(N2C(=O)c3c(c(-c4ccccc4)c(-c4ccc(Sc5ccc(-c6c(-c7ccccc7)c7c(c(-c8ccccc8)c6-c6ccccc6)C(=O)N(c6cccc(C#N)c6)C7=O)cc5)cc4)c(-c4ccccc4)c3-c3ccccc3)C2=O)c1 | GI50 | > 100 µM (inactive) |
| COc1ccc2oc(=N)c(C(N)=S)cc2c1 | GI50 | 23.9 µM (inactive) |
| O=C1Nc2ccccc2/C1=C\c1c(-c2ccccc2)nc2n1CCS2 | GI50 | 19.6 µM (inactive) |
| CC(C)C1COC(c2cccc(C3=N[C@@H](C(C)C)CO3)n2)=N1 (some centres undefined) | GI50 | > 100 µM (inactive) |
| [N-]=[N+]=NC(c1cn(C2CC(O)C(CO)O2)c(=O)[nH]c1=O)C(Cl)Br (centres undefined) | GI50 | > 100 µM (inactive) |
| COc1ccc(C(C)NNC(=O)c2ccncc2)c(OC)c1 (centres undefined) | GI50 | > 100 µM (inactive) |
| CC1=NN(C(=O)CC(=O)Nc2cccc(C)c2)C(=O)C1/N=N\c1ccc(S(=O)(=O)c2ccc(/N=N/C3C(=O)N(C(=O)CC(=O)Nc4cccc(C)c4)N=C3C)cc2)cc1 (centres undefined) | GI50 | > 100 µM (inactive) |
| CC(O[Si](C)(C)C(C)(C)C)[C@H](NC(=O)OCC(Cl)(Cl)Cl)C(=O)O (some centres undefined) | GI50 | > 100 µM (inactive) |

The reported numbers originate from ChEMBL document CHEMBL1201862.
